Numbers sourced from patent US20210253725A1.

Tested on: T1, CD134 protein (His-tagged, Sino Biological Inc. 10481-H08H) (human, UniProt P43489 29-216)
T1 construct: bought protein coated on ELISA plates; also called OX40; TNFRSF4; not shown: His tag
T1 sequence (looked up): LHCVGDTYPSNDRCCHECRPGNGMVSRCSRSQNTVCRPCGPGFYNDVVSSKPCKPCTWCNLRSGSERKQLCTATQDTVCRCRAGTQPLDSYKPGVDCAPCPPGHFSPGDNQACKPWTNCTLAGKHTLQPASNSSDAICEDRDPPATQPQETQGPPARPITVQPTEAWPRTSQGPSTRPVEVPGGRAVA
Method summary: ELISA, coated His-tagged CD134; note: test concentration or dose not given here
Value type: ELISA [abs. corr.] (abs. corr.)
Numbers only, in abs. corr..

{"columns": ["Binder", "ELISA [abs. corr.] [abs. corr.]"],
 "data": [
  ["P018.S.11.A.F04 (antibody, V domains shown, V regions on human Ig constant parts; also called AB134_40) VH: QSVEESGGRLVTPGTPLTLTCTVSGFSLSRYTMGWVRQAPGKGLEYIGIIYGDDNTYYASWAKGRLTISKTSSTTVDLKITSPTTEDTATYFCASCAPIYYNTFSFNLWGQGTLVTVSA VL: AYDMTQTPASVEVAVGGTVTIKCQASQTIGGSLSWYQQKPGQPPKLLIYAAATLASGVPSRFKGSGSGTQFTLTISGVESDDAATYYCQQHYTGDNVNNPFGGGTEVVVK", 2.25]
]}

Turning now to a further record.
Which value of ELISA [abs. corr.] has been reported for P018.S.04.A.E06 (antibody, V domains shown, V regions on human Ig constant parts; also called AB134_11) VH: QSVEESGGRLVTPGTPLTLTCTVSGFSLSGYDMSWVRQAPGKGLEWIGYIYAGSTYYANWAKGRFTISKTSTTVDLKMTSPTTEDTATYFCTRVGAGYSGVWAYFNLWGPGTLVTVSS VL: AQVLTQTPSSVSAAVGGTVTINCQSSQSVDSDNYLAWYQQKPGQPPKLLIYDASKLASGVPSRFTGSGSGTQFTLTISGVQSDDAATYYCQGTYGNIGWYFAFGGGTEVVVK in the records?
0.206
